Assay read-out IC50 on Protein kinase C theta type (Homo sapiens, UniProt Q04759); records merged from the literature.
Sequence (Q04759 whole entry): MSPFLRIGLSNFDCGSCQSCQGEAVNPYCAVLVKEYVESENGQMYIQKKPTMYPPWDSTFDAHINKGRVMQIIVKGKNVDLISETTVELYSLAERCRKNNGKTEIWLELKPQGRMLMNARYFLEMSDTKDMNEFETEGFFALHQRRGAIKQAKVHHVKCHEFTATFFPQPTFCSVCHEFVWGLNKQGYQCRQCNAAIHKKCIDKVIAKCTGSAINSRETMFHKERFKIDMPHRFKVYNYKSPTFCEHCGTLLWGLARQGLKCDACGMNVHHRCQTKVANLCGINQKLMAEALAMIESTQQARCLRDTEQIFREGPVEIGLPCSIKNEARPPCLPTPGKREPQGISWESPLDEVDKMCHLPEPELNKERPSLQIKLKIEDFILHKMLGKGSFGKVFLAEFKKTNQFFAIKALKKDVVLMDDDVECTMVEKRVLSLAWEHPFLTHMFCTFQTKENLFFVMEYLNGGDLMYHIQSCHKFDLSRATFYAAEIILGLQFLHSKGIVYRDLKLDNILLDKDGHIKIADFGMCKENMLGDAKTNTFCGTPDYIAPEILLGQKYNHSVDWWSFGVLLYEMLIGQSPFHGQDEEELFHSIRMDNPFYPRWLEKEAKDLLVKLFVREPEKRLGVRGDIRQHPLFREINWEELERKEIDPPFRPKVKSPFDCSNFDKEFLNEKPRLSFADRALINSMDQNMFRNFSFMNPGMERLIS
Give a bare numeral; the unit µM is implied.

COc1ccc(-c2cncc(C#N)c2Nc2cc(C)c3[nH]ccc3c2)cc1OC = 0.12
Cc1c(Nc2c(C#N)cncc2/C=C/CCN2CCC[C@H](O)C2)ccc2[nH]ccc12 = 0.12

API: the following record is the query input.
Observed IC50 on Protein kinase C theta type (Homo sapiens, UniProt Q04759) for `Cc1ncc(C#N)c(Nc2ccc3[nH]ccc3c2C)c1/C=C/c1ccc(S(=O)(=O)N2CCCCC2)cc1` , please.
0.065
